# experiment_notes: Plasma pharmacokinetics of copanlisib
# Format: in vivo, human
# protocol_conditions: human, plasma, intravenous, 0.8 mg/kg, Cmax, cycle 1 day 15; NHL expansion, 0.8 mg/kg, n=8; geometric mean (%CV)
attribute_measured: Cmax (ng/mL)
# output: bare number, implied unit ng/mL

Task: Name the reported Cmax value associated with the compound `COc1c(OCCCN2CCOCC2)ccc2c1N=C(NC(=O)c1cnc(N)nc1)N1CCN=C21`
Output: 507

* * *

# experiment_notes: Plasma pharmacokinetics of copanlisib
# Type: in vivo, human
# protocol_conditions: human, plasma, intravenous, 0.4 mg/kg, Cmax, cycle 1 day 15; diabetic expansion, 0.4 mg/kg, n=6; geometric mean (%CV)
attribute_measured: Cmax (ng/mL)
Reply numerically in ng/mL, unit not repeated.

Task: Cmax for COc1c(OCCCN2CCOCC2)ccc2c1N=C(NC(=O)c1cnc(N)nc1)N1CCN=C21 [copanlisib, Copanlisib] ?
Output: 151

* * *

# experiment_notes: Plasma pharmacokinetics of copanlisib
# Format: in vivo, human
# protocol_conditions: human, blood, intravenous, 0.8 mg/kg
attribute_measured: concentration at 1 week
Report the figure along with its unit, number first.

Task: I am curious: what concentration at 1 week value has been reported for COc1c(OCCCN2CCOCC2)ccc2c1N=C(NC(=O)c1cnc(N)nc1)N1CCN=C21 [copanlisib, Copanlisib] ?
Output: 1.6 nM

* * *

# experiment_notes: Plasma pharmacokinetics of copanlisib
# Format: in vivo, human
# protocol_conditions: human, plasma, intravenous, 0.1 mg/kg, tmax, cycle 1 day 1; cohort 1, 0.1 mg/kg, n=1; individual data
attribute_measured: Tmax (min)
Please respond with the number in min and leave the unit unwritten.

Task: Need Tmax, item COc1c(OCCCN2CCOCC2)ccc2c1N=C(NC(=O)c1cnc(N)nc1)N1CCN=C21 [copanlisib, Copanlisib]
Output: 30

* * *

# experiment_notes: Plasma pharmacokinetics of copanlisib
# Assay type: in vivo, human
# protocol_conditions: human, plasma, intravenous, 0.4 mg/kg, t1/2, cycle 1 day 1; cohort 3, 0.4 mg/kg, n=1
attribute_measured: half-life (days)
# unit: days | format: bare number

Task: Need half-life of COc1c(OCCCN2CCOCC2)ccc2c1N=C(NC(=O)c1cnc(N)nc1)N1CCN=C21 [copanlisib, Copanlisib] , thanks.
Output: 2.52

* * *

# experiment_notes: Plasma pharmacokinetics of copanlisib
# Type: in vivo, human
# protocol_conditions: human, plasma, intravenous, 0.2 mg/kg, Cmax, cycle 1 day 1; cohort 2, 0.2 mg/kg, n=3; geometric mean (%CV)
attribute_measured: Cmax (µg/mL)
Please reply with the bare figure in µg/mL and do not write the unit itself.

Task: So what's the measured Cmax for this one? COc1c(OCCCN2CCOCC2)ccc2c1N=C(NC(=O)c1cnc(N)nc1)N1CCN=C21 [copanlisib, Copanlisib]
Output: 0.0798

* * *

# experiment_notes: Plasma pharmacokinetics of copanlisib
# Format: in vivo, human
# protocol_conditions: human, plasma, intravenous, 0.4 mg/kg, AUC(0–25), cycle 1 day 15; cohort 3, 0.4 mg/kg, n=2; range
attribute_measured: AUC(0-t)

Task: Fill in: AUC(0-t) of `COc1c(OCCCN2CCOCC2)ccc2c1N=C(NC(=O)c1cnc(N)nc1)N1CCN=C21` is ___
Output: 324 to 803 ng·h/mL

* * *

# experiment_notes: Plasma pharmacokinetics of copanlisib
# Format: in vivo, human
# protocol_conditions: human, plasma, intravenous, 0.8 mg/kg, Cmax, cycle 1 day 1; cohort 4, 0.8 mg/kg, n=7; geometric mean (%CV)
attribute_measured: Cmax (ng/mL)
// note: answer is a bare numeric in ng/mL

Task: Dear colleague, I am looking for the recorded Cmax of the following compound: COc1c(OCCCN2CCOCC2)ccc2c1N=C(NC(=O)c1cnc(N)nc1)N1CCN=C21 [copanlisib, Copanlisib]
Output: 293

From: paper PMC5035790
